Measured Target: UniProt Q9NYK1
Sequence (Q9NYK1 27-1049): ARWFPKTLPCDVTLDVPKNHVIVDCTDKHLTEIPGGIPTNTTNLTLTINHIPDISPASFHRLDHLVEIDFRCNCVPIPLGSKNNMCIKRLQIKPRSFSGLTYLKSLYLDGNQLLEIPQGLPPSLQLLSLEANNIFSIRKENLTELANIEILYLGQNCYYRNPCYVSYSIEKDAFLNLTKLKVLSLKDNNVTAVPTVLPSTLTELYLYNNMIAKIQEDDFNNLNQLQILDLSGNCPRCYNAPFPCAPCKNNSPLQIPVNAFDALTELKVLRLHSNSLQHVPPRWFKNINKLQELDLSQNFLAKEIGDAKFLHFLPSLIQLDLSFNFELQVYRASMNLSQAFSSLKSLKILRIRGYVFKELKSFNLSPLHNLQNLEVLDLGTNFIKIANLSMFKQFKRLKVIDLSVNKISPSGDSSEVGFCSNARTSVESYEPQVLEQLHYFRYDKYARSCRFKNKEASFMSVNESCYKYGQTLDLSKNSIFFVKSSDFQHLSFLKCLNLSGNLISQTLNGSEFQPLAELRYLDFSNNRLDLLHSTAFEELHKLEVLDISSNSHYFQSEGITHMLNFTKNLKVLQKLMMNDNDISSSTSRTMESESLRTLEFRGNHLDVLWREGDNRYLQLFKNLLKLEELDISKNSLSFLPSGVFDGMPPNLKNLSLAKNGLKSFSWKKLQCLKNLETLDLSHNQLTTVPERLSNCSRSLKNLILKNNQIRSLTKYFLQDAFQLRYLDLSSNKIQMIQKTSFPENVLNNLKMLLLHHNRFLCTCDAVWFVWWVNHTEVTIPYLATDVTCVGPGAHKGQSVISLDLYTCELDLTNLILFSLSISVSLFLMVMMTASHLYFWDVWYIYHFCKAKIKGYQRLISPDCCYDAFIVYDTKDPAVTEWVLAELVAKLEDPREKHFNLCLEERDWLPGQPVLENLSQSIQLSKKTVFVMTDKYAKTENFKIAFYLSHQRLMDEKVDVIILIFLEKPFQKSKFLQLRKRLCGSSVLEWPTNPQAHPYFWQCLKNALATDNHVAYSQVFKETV
Test Description: TLR7 inhibition reporter assay (HEK-Blue cells, SEAP reporter, gardiquimod stimulation)
Reported Conditions: HEK-Blue cells overexpressing human TLR7, gardiquimod 7.5 μM
Property Label: IC50 (nM)

INSERT INTO assay_data (compound, measured_target, unit_descriptor, recorded_result) VALUES
  ('CCc1c(-c2ccc(OC)c(OC)c2)[nH]c2ccc(C3CCN(C(=O)c4ccncc4)CC3)cc12', 'UniProt Q9NYK1', 'nM', 533),
  ('COc1ccc(-c2[nH]c3ccc(C4CCN(C5COC5)CC4)cc3c2C)cc1OC', 'UniProt Q9NYK1', 'nM', 2160),
  ('COc1ccc(-c2[nH]c3ccc(C4CCN(CCNC(=O)OC(C)(C)C)CC4)cc3c2C)cc1OC', 'UniProt Q9NYK1', 'nM', 938),
  ('COc1ccc(-c2[nH]c3ccc(C4CCN(Cc5cccc(NS(C)(=O)=O)c5)CC4)cc3c2C(C)C)cc1OC', 'UniProt Q9NYK1', 'nM', 64),
  ('COc1ccc(-c2[nH]c3ccc(C4CCN(CC(=O)NCCN(C)C)CC4)cc3c2CC(F)(F)F)cc1OC', 'UniProt Q9NYK1', 'nM', 33),
  ('CCc1c(-c2ccc(OC)c(OC)c2)[nH]c2ccc(C3CCN(C4CCN(Cc5ccc(-c6ccccc6)o5)CC4)CC3)cc12', 'UniProt Q9NYK1', 'nM', 1260),
  ('COc1ccc(-c2[nH]c3ccc(C4CCN(C5CCN(C6CCN(C)CC6)CC5)CC4)cc3c2C)cc1OC', 'UniProt Q9NYK1', 'nM', 538),
  ('CCC(CC)NC(=O)CN1CCC(c2ccc3[nH]c(-c4ccc(OC)c(OC)c4)c(CC(F)(F)F)c3c2)CC1', 'UniProt Q9NYK1', 'nM', 622),
  ('COc1ccc(-c2[nH]c3ccc(C4CCN(CC(=O)N5CCN(c6ccncc6)CC5)CC4)cc3c2CC(F)(F)F)cc1OC', 'UniProt Q9NYK1', 'nM', 4),
  ('CCc1c(-c2ccc(OC)c(OC)c2)[nH]c2ccc(C3CCN(C4CCN(C(C)C)CC4)CC3)cc12', 'UniProt Q9NYK1', 'nM', 507);

P: CCc1c(-c2ccc(OC)c(OC)c2)[nH]c2c(F)cc(C3CCN(CCNC)CC3)cc12
Q: COc1ccc(-c2[nH]c3ccc(C4CCN(CC(=O)NCC#N)CC4)cc3c2CC(F)(F)F)cc1OC
Query string: Parameter metric = IC50. Return the lower-valued option from P and Q . Indicate your choice by writing its label.
Result string: Q

I: COc1ccc(-c2[nH]c3ccc(C4CCN(C(=O)CNCCC(C)O)CC4)cc3c2C)cc1OC (centres unmarked)
II: CCc1c(-c2ccc(OC)c(OC)c2)[nH]c2ccc(C3CCN(C(=O)CN4CCCC(CO)C4)CC3)cc12 (centres unmarked)
Query string: Parameter metric = IC50. Return the lower-valued option from I and II . Indicate your choice by writing its label.
Result string: II
